system: EKVX NSCLC; test: NCI-60 one-dose screen, 48 h (100 = growth as untreated, 0 = no growth, -100 = all killed); details: 10 µM unless noted
The panel holds about 83,000 compounds, 20% with a hit somewhere; the sample as a whole holds those more often.
measured-attribute: growth (%)
Reply with just the number (in %).

[ask] # input compound: OC(CBr)c1ccnc2ccccc12 (centres undefined) ; wanted: its growth
[reply] 103

[ask] Repeat for the following compound: COc1cc(C2CC(c3ccc(Nc4nc(Nc5ccc(F)cc5)nc(Nc5ccc(Cl)cc5)n4)cc3)=NN2C(C)=O)cc(OC)c1OC (centres undefined)
[reply] 202

[ask] Please do the same for COc1cc(C(=O)/C=C/c2c(-c3ccc(F)cc3)nc3ncccn23)cc(OC)c1OC as well.
[reply] 52.3

[ask] Now the same for C=C1C(=O)O[C@H]2[C@H]1CC/C(COC(=O)/C=C/C(=O)NCc1ccc(Cn3c(=O)sn(-c4ccccc4)c3=O)cc1)=C\CC[C@@]1(C)O[C@@H]21
[reply] 52.3

[ask] Queued: COc1ccc(/C(C)=C(\c2ccc(Cl)cc2)c2ccc(OCCN3CCCCCC3)cc2)cc1F
[reply] 57.7

---

growth: recorded values
test system: SF-295 CNS; experiment: NCI-60 one-dose screen, 48 h (100 = growth as untreated, 0 = no growth, -100 = all killed); conditions: 10 µM unless noted
Compounds without any hit were thinned out: in the full panel of roughly 83,000, 20% have a hit. Calls of active or inactive are those of the source. How the source made its calls: active means growth percent below 10; inactive means the rest.

molecule	endpoint-result
CC(=O)C(C(C)=O)c1nc2sc3cc(Cl)ccc3n2c(=N)c1C#N	98.4% (inactive)
CN(C)c1ccc(C#Cc2c(F)cccc2Cl)cc1	76.5% (inactive)
CCc1nc2ccccc2[nH]1	119% (inactive)
COc1cc(NC(=O)c2cccc(-c3cc(=O)c4c(OC)c(OC)c(OC)cc4o3)c2)cc(OC)c1OC	45% (inactive)

[ask] Quick check: growth of C=CCO[C@H]1CO[C@H]2[C@@H]1OC[C@@H]2Oc1ccc(Nc2ccnc(Nc3ccc(O[C@H]4CO[C@H]5[C@@H]4OC[C@@H]5OCC=C)c(Cl)c3)n2)cc1Cl ?
[reply] -77.8% (active)

[ask] Then what about the molecule CCCCCCCCc1cc[n+](CC(=O)c2ccc(Br)cc2)cc1 ?
[reply] 34% (inactive)

[ask] Repeat for the following molecule: O=C(C[C@@]1(O)C(=O)Nc2c(Cl)ccc(Cl)c21)c1ccc(C2CC2)cc1
[reply] -9.37% (active)

[ask] Also CC(=O)c1sc(-c2ccccc2)cc1N ?
[reply] 99.7% (inactive)

[ask] How about C=C(C=O)[C@@H]1CC=C(C=O)CC1 ?
[reply] -15.7% (active)

[ask] Please do the same for COc1cc(-c2cc(-c3ccc(Nc4nc(Nc5ccccc5)nc(Nc5ccc(Cl)cc5)n4)cc3)nc(N)n2)cc(OC)c1OC as well.
[reply] 70.5% (inactive)

[ask] Cool, now C=C(C)[C@@H]1CC[C@]2(CN)CC[C@]3(C)[C@H](CC[C@@H]4[C@@]5(C)CCC(N)[C@@](C)(CO)[C@@H]5CC[C@]43C)[C@@H]12 (stereo not given in full)
[reply] 87.8% (inactive)

[ask] Likewise for CN1C[C@@H](c2ccc(Cl)cc2)[C@]2(NC(=S)N(c3ccccc3)C2=O)[C@@]12C(=O)NC1C=CC(Br)=C[C@H]12 (stereo not given in full) ?
[reply] 80.6% (inactive)
